# Tested on: U251 CNS
# experimentalDetails: NCI tumour cell line growth inhibition, 48 h; in the data active means GI50 below about 0.43 µM; inactive means the rest
The categories you may choose from are 1 (active), 0 (inactive)

// outcome(item) with item = CCN1Cc2c(ccc(F)c2C#N)O[C@@H](C)CNC(=O)c2c(N)nn3ccc1nc23
0

Entry CCN1C(=O)N(c2ccccc2)C2NC(=S)N(/N=C/C=C/c3ccccc3)C21 (centres undefined) please
0

Entry CCC[CH2][Sn]([CH2]CCC)([CH2]CCC)[O]C(=O)c1ccc(Cl)cc1Cl please
1

Entry CC(C)COCC(CN(Cc1ccccc1)c1ccccc1)N1CCCC1 (centres undefined) please
0

Entry CCCCCCCCCCC(C(O)c1ccccc1)N1CCCCC1 (centres undefined) please
0

Entry COc1ccc(/C(=N\O)c2cc(C)c(OC)c(C)c2)cc1O please
1

Entry O=C(c1ccccc1)C(Br)C(Br)c1cccc([N+](=O)[O-])c1 (centres undefined) please
0

Entry COc1ccc(/C=C(\C#N)n2nnc3ccccc32)cc1 please
1

Entry O=c1[nH]c(=O)c2cc(C3CC(O)C(CO)O3)ccc2[nH]1 (centres undefined) please
0

====

# Test system: CAKI-1 renal
# experimentalDetails: NCI tumour cell line growth inhibition, 48 h
measuredMetric: TGI

Quick check: TGI of COc1ccc(NC(=O)/C(=N/NC(N)=S)C2C(=O)NC(=S)NC2=O)c(OC)c1 ?
> 100 µM

Entry COCn1cnc2c(=O)n(-c3ccc(OC)cc3)c(=S)n(-c3ccc(OC)cc3)c21 please
> 100 µM

Entry OC1[C@H](O)CN(OCc2ccccc2)C[C@@H]1O (stereo not given in full) please
> 100 µM

Entry COc1cc(-n2cc(-c3ccc(Cl)cc3)nc2SCc2cccc(C#N)c2)cc(OC)c1OC please
> 100 µM

Entry O=C(O)CNS(=O)(=O)c1ccc(NC(=O)CI)cc1 please
> 100 µM

Entry Cc1ccc(/C=C2\CN(C)CC3C2=NN(c2ccccc2)C3c2ccc(C)cc2)cc1 (stereo not given) please
> 100 µM

Entry COc1ccc2c(c1)-c1[nH]c3ccc(OC)cc3c1CC2 please
34.8 µM

Entry CCCCCCCCCCCCOC1C(C(COC2OC(C3COC(C)(C)O3)C3OC(C)(C)OC23)NC(=O)NS(=O)(=O)c2ccccc2)OC2OC(C)(C)OC21 (stereo not given) please
20 µM

Entry O=[N+]([O-])c1cc2c(c([N+](=O)[O-])c1)NCc1ccccc1O2 please
> 100 µM

Entry COC(=O)[C@@H](NC(=O)N(CCC#N)CCCN(C(=O)N[C@H](Cc1ccccc1)C(=O)OC)c1ccccc1)C(C)C please
> 100 µM

====

# System: MCF7 breast
# experimentalDetails: NCI tumour cell line growth inhibition, 48 h
measuredMetric: TGI

Hello, I am looking for reported TGI with MCF7 breast for CC1=C(C(=O)N(C(C)C)C(C)C)CC(C(=O)N(C(C)C)C(C)C)=C(C)N1 . Could you help?
> 100 µM

Entry COc1ccc(/C=C(\C#N)n2nnc3ccccc32)cc1 please
> 100 µM

Entry CCN(C(C)=O)c1cnc(/C=N/NC(N)=S)c2ccccc12 please
> 23.8 µM

Entry C=CCN1C(=O)/C(=C/c2ccc(C)cc2)NC1=S please
> 100 µM

Entry NC(=S)N/N=C1/CCCC2CCCC[C@@H]12 (stereo not given in full) please
> 100 µM
